Biological target: MBP-FoxP3dN (Mus musculus, UniProt Q99JB6 188-423)
Sequence: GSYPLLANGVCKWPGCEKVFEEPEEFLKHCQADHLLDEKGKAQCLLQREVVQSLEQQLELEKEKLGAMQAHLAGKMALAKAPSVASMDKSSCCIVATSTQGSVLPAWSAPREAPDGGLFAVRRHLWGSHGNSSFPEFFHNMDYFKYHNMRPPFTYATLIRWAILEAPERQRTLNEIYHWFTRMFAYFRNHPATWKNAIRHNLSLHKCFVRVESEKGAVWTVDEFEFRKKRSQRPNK
Test: PD-seq (MBP pull-down with sequencing); 20 mM Tris-HCl pH 7.5, 100 mM NaCl, 1.5 mM MgCl2, 0.4 uM protein, 0.1 uM dsDNA library, 30 min, room temperature, amylose pull-down; high values mean tight binding
Conditions: protein: recombinant; tags: His6-MBP; chain copies: 2; dsDNA, one strand shown
In all, about 16,000 sequences were measured (“rpm ratio (pull-down/input)”: median about 0.5, highest 2% from about 5.5 on). For the sample, the highest values were picked, then their nearest neighbours and some sequences at random.
In this section, each of the sequences is paired with its reported binding signal.

> print(dat)
                           ordered.residues                               measured.on                     measured.value
1  GATGATTGTTCTCCCAGCTGATGAATTCTCATGTTCGAGTAAACAAATTTTCCTAATCTTTCTGTTCAAGCGCCATCTAC  MBP-FoxP3dN (Mus musculus, UniProt Q99JB6 188-423)  0.416 RPM ratio (pull-down/input)
2  GATGATTGTTCTCCCAGCTGATGAATTTCATGATTCGAGTAAACAAATTTTCCTAATCTTTCTGTTCAAGCGCCATCTAC  MBP-FoxP3dN (Mus musculus, UniProt Q99JB6 188-423)  0.692 RPM ratio (pull-down/input)
3  GATGATTGTTCTCCCAGCTGATGAATTAGTAGGGTCGAGTAAACAAATTTTCCTAATCTTTCTGTTCAAGCGCCATCTAC  MBP-FoxP3dN (Mus musculus, UniProt Q99JB6 188-423)    1.4 RPM ratio (pull-down/input)
4  GATGATTGTTCTCCCAGCTGATGAATTCATATTGTCGAGTAAACAAATTTTCCTAATCTTTCTGTTCAAGCGCCATCTAC  MBP-FoxP3dN (Mus musculus, UniProt Q99JB6 188-423)   1.06 RPM ratio (pull-down/input)
5  GATGATTGTTCTCCCAGCTGATGAATTATGCAACTCGAGTAAACAAATTTTCCTAATCTTTCTGTTCAAGCGCCATCTAC  MBP-FoxP3dN (Mus musculus, UniProt Q99JB6 188-423)    6.6 RPM ratio (pull-down/input)

Summary: GATGATTGTTCTCCCAGCTGATGAATTGTGTTCATCGAGTAAACAAATTTTCCTAATCTTTCTGTTCAAGCGCCATCTAC , MBP-FoxP3dN (Mus musculus, UniProt Q99JB6 188-423), binding signal = 1.77 RPM ratio (pull-down/input)

Summary: GATGATTGTTCTCCCAGCTGATGAATTATCCCACTCGAGTAAACAAATTTTCCTAATCTTTCTGTTCAAGCGCCATCTAC , MBP-FoxP3dN (Mus musculus, UniProt Q99JB6 188-423), binding signal = 0.322 RPM ratio (pull-down/input)

Summary: GATGATTGTTCTCCCAGCTGATGAATTCACGGTTTCGAGTAAACAAATTTTCCTAATCTTTCTGTTCAAGCGCCATCTAC , MBP-FoxP3dN (Mus musculus, UniProt Q99JB6 188-423), binding signal = 0.47 RPM ratio (pull-down/input)

Summary: GATGATTGTTCTCCCAGCTGATGAATTTAGCGCCTCGAGTAAACAAATTTTCCTAATCTTTCTGTTCAAGCGCCATCTAC , MBP-FoxP3dN (Mus musculus, UniProt Q99JB6 188-423), binding signal = 1.56 RPM ratio (pull-down/input)

Summary: GATGATTGTTCTCCCAGCTGATGAATTCTGCCATTCGAGTAAACAAATTTTCCTAATCTTTCTGTTCAAGCGCCATCTAC , MBP-FoxP3dN (Mus musculus, UniProt Q99JB6 188-423), binding signal = 4.97 RPM ratio (pull-down/input)

Summary: GATGATTGTTCTCCCAGCTGATGAATTGAACTGGTCGAGTAAACAAATTTTCCTAATCTTTCTGTTCAAGCGCCATCTAC , MBP-FoxP3dN (Mus musculus, UniProt Q99JB6 188-423), binding signal = 0.209 RPM ratio (pull-down/input)

Summary: GATGATTGTTCTCCCAGCTGATGAATTCCGATTGTCGAGTAAACAAATTTTCCTAATCTTTCTGTTCAAGCGCCATCTAC , MBP-FoxP3dN (Mus musculus, UniProt Q99JB6 188-423), binding signal = 1.93 RPM ratio (pull-down/input)

Summary: GATGATTGTTCTCCCAGCTGATGAATTTTTAGCCTCGAGTAAACAAATTTTCCTAATCTTTCTGTTCAAGCGCCATCTAC , MBP-FoxP3dN (Mus musculus, UniProt Q99JB6 188-423), binding signal = 0.414 RPM ratio (pull-down/input)

Summary: GATGATTGTTCTCCCAGCTGATGAATTTTCCTTATCGAGTAAACAAATTTTCCTAATCTTTCTGTTCAAGCGCCATCTAC , MBP-FoxP3dN (Mus musculus, UniProt Q99JB6 188-423), binding signal = 0.31 RPM ratio (pull-down/input)

Summary: GATGATTGTTCTCCCAGCTGATGAATTTAGAGGCTCGAGTAAACAAATTTTCCTAATCTTTCTGTTCAAGCGCCATCTAC , MBP-FoxP3dN (Mus musculus, UniProt Q99JB6 188-423), binding signal = 0.583 RPM ratio (pull-down/input)

Summary: GATGATTGTTCTCCCAGCTGATGAATTTTGTCCGTCGAGTAAACAAATTTTCCTAATCTTTCTGTTCAAGCGCCATCTAC , MBP-FoxP3dN (Mus musculus, UniProt Q99JB6 188-423), binding signal = 0.813 RPM ratio (pull-down/input)

Summary: GATGATTGTTCTCCCAGCTGATGAATTGGGCCGGTCGAGTAAACAAATTTTCCTAATCTTTCTGTTCAAGCGCCATCTAC , MBP-FoxP3dN (Mus musculus, UniProt Q99JB6 188-423), binding signal = 0.372 RPM ratio (pull-down/input)

Summary: GATGATTGTTCTCCCAGCTGATGAATTTCTGCATTCGAGTAAACAAATTTTCCTAATCTTTCTGTTCAAGCGCCATCTAC , MBP-FoxP3dN (Mus musculus, UniProt Q99JB6 188-423), binding signal = 6.35 RPM ratio (pull-down/input)

Summary: GATGATTGTTCTCCCAGCTGATGAATTGCTCAAATCGAGTAAACAAATTTTCCTAATCTTTCTGTTCAAGCGCCATCTAC , MBP-FoxP3dN (Mus musculus, UniProt Q99JB6 188-423), binding signal = 0.408 RPM ratio (pull-down/input)

Summary: GATGATTGTTCTCCCAGCTGATGAATTATGCCACTCGAGTAAACAAATTTTCCTAATCTTTCTGTTCAAGCGCCATCTAC , MBP-FoxP3dN (Mus musculus, UniProt Q99JB6 188-423), binding signal = 6.25 RPM ratio (pull-down/input)

Summary: GATGATTGTTCTCCCAGCTGATGAATTCGCTGCATCGAGTAAACAAATTTTCCTAATCTTTCTGTTCAAGCGCCATCTAC , MBP-FoxP3dN (Mus musculus, UniProt Q99JB6 188-423), binding signal = 1.02 RPM ratio (pull-down/input)

Summary: GATGATTGTTCTCCCAGCTGATGAATTCTGGAATTCGAGTAAACAAATTTTCCTAATCTTTCTGTTCAAGCGCCATCTAC , MBP-FoxP3dN (Mus musculus, UniProt Q99JB6 188-423), binding signal = 0.579 RPM ratio (pull-down/input)

Summary: GATGATTGTTCTCCCAGCTGATGAATTTAGCAGGTCGAGTAAACAAATTTTCCTAATCTTTCTGTTCAAGCGCCATCTAC , MBP-FoxP3dN (Mus musculus, UniProt Q99JB6 188-423), binding signal = 0.708 RPM ratio (pull-down/input)

Summary: GATGATTGTTCTCCCAGCTGATGAATTTTTGCGTTCGAGTAAACAAATTTTCCTAATCTTTCTGTTCAAGCGCCATCTAC , MBP-FoxP3dN (Mus musculus, UniProt Q99JB6 188-423), binding signal = 2.04 RPM ratio (pull-down/input)

Summary: GATGATTGTTCTCCCAGCTGATGAATTACTCATCTCGAGTAAACAAATTTTCCTAATCTTTCTGTTCAAGCGCCATCTAC , MBP-FoxP3dN (Mus musculus, UniProt Q99JB6 188-423), binding signal = 0.431 RPM ratio (pull-down/input)

Summary: GATGATTGTTCTCCCAGCTGATGAATTTTATGCATCGAGTAAACAAATTTTCCTAATCTTTCTGTTCAAGCGCCATCTAC , MBP-FoxP3dN (Mus musculus, UniProt Q99JB6 188-423), binding signal = 1.54 RPM ratio (pull-down/input)

Summary: GATGATTGTTCTCCCAGCTGATGAATTATTCAACTCGAGTAAACAAATTTTCCTAATCTTTCTGTTCAAGCGCCATCTAC , MBP-FoxP3dN (Mus musculus, UniProt Q99JB6 188-423), binding signal = 0.381 RPM ratio (pull-down/input)

Summary: GATGATTGTTCTCCCAGCTGATGAATTTATGAATTCGAGTAAACAAATTTTCCTAATCTTTCTGTTCAAGCGCCATCTAC , MBP-FoxP3dN (Mus musculus, UniProt Q99JB6 188-423), binding signal = 0.946 RPM ratio (pull-down/input)

Summary: GATGATTGTTCTCCCAGCTGATGAATTAGCACTTTCGAGTAAACAAATTTTCCTAATCTTTCTGTTCAAGCGCCATCTAC , MBP-FoxP3dN (Mus musculus, UniProt Q99JB6 188-423), binding signal = 0.435 RPM ratio (pull-down/input)
